Each item that follows carries a reported pIC50.
test.target: BCAT2 (Homo sapiens, UniProt O15382)
Sequence (O15382 28-392): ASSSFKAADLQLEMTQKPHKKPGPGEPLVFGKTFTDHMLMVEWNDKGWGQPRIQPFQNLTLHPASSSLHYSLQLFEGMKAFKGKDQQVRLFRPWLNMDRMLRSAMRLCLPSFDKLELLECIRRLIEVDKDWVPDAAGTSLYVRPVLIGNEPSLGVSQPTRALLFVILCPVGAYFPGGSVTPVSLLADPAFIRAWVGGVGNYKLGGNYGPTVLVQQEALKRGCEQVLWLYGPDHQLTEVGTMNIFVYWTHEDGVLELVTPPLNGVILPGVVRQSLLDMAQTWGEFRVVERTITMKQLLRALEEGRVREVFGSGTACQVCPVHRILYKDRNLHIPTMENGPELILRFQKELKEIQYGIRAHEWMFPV
experiment.notes: BCAT2 in vitro enzyme inhibition assay (resazurin/diaphorase-coupled fluorescence)
Format: biochemical
test.settings: average where tested multiple times
pIC50: −log10 of the molar value.

compound | test.target | pIC50
Cc1cnn(-c2cc3c(cn2)nc(-c2ccccc2F)n3[C@H]2CCC[C@@H](NC(=O)c3ncc(Cl)s3)[C@@H]2O)n1 | BCAT2 (Homo sapiens, UniProt O15382) | 6.00 to 6.30
CC(C)Cc1nc2cnc(-c3nc[nH]n3)cc2n1[C@@H]1CCC[C@H](NC(=O)c2ncc(Cl)s2)[C@@H]1O | BCAT2 (Homo sapiens, UniProt O15382) | ≥ 7.00
CO[C@H]1C[C@H](NC(=O)c2ccc(Cl)s2)C[C@H](n2c(-c3ccccc3F)nc3cnc(-c4nc[nH]n4)cc32)C1 (stereo in doubt) | BCAT2 (Homo sapiens, UniProt O15382) | 6.30 to 7.00
O=C(N[C@H]1CCC[C@@H](n2c(-c3ccccc3F)nc3cnc(-c4nc[nH]n4)cc32)[C@@H]1O)c1ncc(Cl)s1 | BCAT2 (Homo sapiens, UniProt O15382) | ≥ 7.00
O=C(N[C@@H]1CCC[C@H](n2c(-c3ccccc3F)nc3cnc(-c4ccccn4)cc32)[C@H]1O)c1ncc(Cl)s1 | BCAT2 (Homo sapiens, UniProt O15382) | 6.30 to 7.00
C[C@@H]1CCCN1c1cc2c(cn1)nc(-c1ccccc1F)n2[C@@H]1CCC[C@H](NC(=O)c2ncc(Cl)s2)C1 | BCAT2 (Homo sapiens, UniProt O15382) | 6.30 to 7.00
O=C(N[C@H]1CCC[C@@H](n2c(-c3ncccc3F)nc3cnc(N4CCC4)cc32)C1)c1ccc(Br)s1 | BCAT2 (Homo sapiens, UniProt O15382) | < 6.00
O=C(N[C@@H]1C[C@@H](O)C[C@H](n2c(-c3ccccc3F)nc3cnc(-c4ccccn4)cc32)C1)c1ncc(Cl)s1 | BCAT2 (Homo sapiens, UniProt O15382) | 6.30 to 7.00
CC(C)Cc1nc2cnc(-n3nccn3)cc2n1[C@@H]1CCC[C@H](NC(=O)c2ccc(Cl)s2)[C@H]1O | BCAT2 (Homo sapiens, UniProt O15382) | ≥ 7.00
CC(=O)N1CC(NC(=O)c2ccc(Cl)s2)CC(n2c(CC(C)C)nc3cnc(-n4nccn4)cc32)C1 (stereo not shown) | BCAT2 (Homo sapiens, UniProt O15382) | ≥ 7.00
COC(=O)N[C@@H](c1nc2cnc(-c3nc[nH]n3)cc2n1[C@@H]1CCC[C@H](NC(=O)c2ncc(Cl)s2)C1)C(C)C | BCAT2 (Homo sapiens, UniProt O15382) | < 6.00
CC(C)Cc1nc2cnc(-c3ccccn3)cc2n1[C@H]1CCC[C@@H](NC(=O)c2ncc(Cl)s2)[C@@H]1O | BCAT2 (Homo sapiens, UniProt O15382) | 6.00 to 6.30
CNC(=O)c1ccc2c(c1)nc(-c1ccccn1)n2C1CC(NC(=O)c2ccc(Br)s2)CN(C(N)=O)C1 (stereo not shown) | BCAT2 (Homo sapiens, UniProt O15382) | ≥ 7.00
C#Cc1cnc(C(=O)N[C@H]2CCC[C@@H](n3c(-c4ncccc4F)nc4cnc(-n5ccnn5)cc43)C2)s1 | BCAT2 (Homo sapiens, UniProt O15382) | ≥ 7.00
O=C(N[C@H]1CCC[C@@H](n2c(-c3ccccc3F)nc3cnc(-n4nccn4)cc32)C1)c1ccc(Br)s1 | BCAT2 (Homo sapiens, UniProt O15382) | ≥ 7.00
Cc1cnn(-c2cc3c(cn2)nc(-c2ccccn2)n3[C@@H]2CCC[C@H](NC(=O)c3ccc(Br)s3)C2)n1 | BCAT2 (Homo sapiens, UniProt O15382) | ≥ 7.00
O=C(N[C@H]1CCC[C@@H](n2c(-c3ccccc3F)nc3cnc(-c4n[nH]c(=O)o4)cc32)C1)c1ncc(Cl)s1 | BCAT2 (Homo sapiens, UniProt O15382) | ≥ 7.00
CC(C)Cc1nc2cnc(-c3nc(CO)cs3)cc2n1[C@@H]1CCC[C@H](NC(=O)c2ncc(Cl)s2)C1 | BCAT2 (Homo sapiens, UniProt O15382) | ≥ 7.00
O=C(NC1CC(O)CC(n2c(-c3ccccc3F)nc3cnc(-c4nnc[nH]4)cc32)C1)c1ncc(Cl)s1 (stereo not shown) | BCAT2 (Homo sapiens, UniProt O15382) | ≥ 7.00
